Give measured max response for each item. Keep answers brief.
assay notes: Cycloheximide Counterscreen for Small Molecule Inhibitors of Shiga Toxin; further: read at 38.3 µM for the half of the compounds with a filed dose; 0% is about no effect
conditions: cell reporter, cycloheximide protein synthesis inhibition counterscreen; active compounds read high
In all, about 300,000 compounds went through this assay and about 37,000 (12%) were called active. The sample holds actives, similar compounds and a random draw of the others, so the mix is not that of the screen.

What measured max response goes with "Cc1ccc(NC(=O)c2cccnc2C(=O)Nc2ccc(C)cc2)cc1" ?
-2.58% (inactive)

// repeat for "CC(=O)c1c(C)[nH]c(C(=O)OCC(=O)NCCC(C)C)c1C" and report
-1.49% (inactive)

// repeat for CC(=O)Nc1ccc(CN2CCN(Cc3ccc(F)c(F)c3)C(CCO)C2)cc1 (stereo not drawn) and report
-0.733% (inactive)

// repeat for "CC(=O)c1nn(-c2cccc(Br)c2)cc1C(=O)c1cccc2ccccc12" and report
4.07% (inactive)

// repeat for COC(=O)CSc1nc2c(c(C3CC=CCC3)c1C#N)CCC2 (stereo not drawn) and report
-1.01% (inactive)

// repeat for "COc1ccc(C(=S)Nc2ccccc2)cc1" and report
37.3% (active)

// repeat for "Cc1ccc(NC(=O)c2ccc(Oc3ncccn3)cc2)cc1" and report
32.1% (active)

// repeat for "N#CC1(NC(=O)COC(=O)CCN=C2NS(=O)(=O)c3ccccc32)CCCCC1" and report
-3.22% (inactive)

// repeat for "COCCNC(=S)c1ccc(OC)cc1" and report
5.78% (inactive)

// repeat for "O=S(=O)(c1ccc(F)cc1)N1CCN=C1SCc1cccc(F)c1" and report
7.74% (inactive)

// repeat for "CCOC(=O)c1nn(-c2cccc(C)c2)cc1C(=O)c1ccccc1" and report
43.2% (active)

// repeat for "COc1ccc(S(=O)(=O)NCC(=O)NC2CC2)cc1OC" and report
-2.51% (inactive)

// repeat for "O=C(c1cc2ccccc2s1)N1CCN(c2ccccn2)CC1" and report
-0.772% (inactive)

// repeat for CN(C)c1ccc(NC(=S)N(CCc2ccccc2)C2CC(=O)N(c3c(Cl)cccc3Cl)C2=O)cc1 (stereo not drawn) and report
9.01% (inactive)

// repeat for "CCCCOC(=O)c1[nH]c(C)c(C(=O)OC)c1C" and report
60.6% (active)

// repeat for "CC(C)N(Cc1ccccc1)C(=O)COC(=O)c1cnccn1" and report
-3.2% (inactive)

// repeat for CCN(CC)S(=O)(=O)c1ccc(Cl)c(C(=O)NC(C)C(c2cccs2)N2CCCC2)c1 (stereo not drawn) and report
3.13% (inactive)

// repeat for "CC(C)(C)N(Cc1ccccc1)C(=O)COC(=O)CCc1c[nH]c2ccccc12" and report
-0.22% (inactive)

// repeat for "COc1ccc(-c2c(-c3ccc(OC)cc3O)nc(C)nc2C(F)(F)F)cc1" and report
-2.37% (inactive)

// repeat for CCC(C(=O)OCC(=O)Nc1ccc(C(=O)Nc2ccc(OC)cc2)cc1)c1ccccc1 (stereo not drawn) and report
11.5% (inactive)

// repeat for "CCc1cc(C(N)=O)c(NC(=O)c2ccc(OC)cc2)s1" and report
19.3% (active)

// repeat for "CCN1/C(=C\c2ccc3ccccc3[n+]2CC)Sc2cc(C)ccc21" and report
1.19% (inactive)

// repeat for "C#CCOc1ccccc1/C=C1/C(=O)ON=C1C" and report
7.98% (inactive)
